Source listed as patent US12673975B2.

Entries and their Kd values follow.
- subject.of.test: human integrin αvβ5 (Homo sapiens, UniProt P06756+P18084)
- Sequence (P06756 31-1048): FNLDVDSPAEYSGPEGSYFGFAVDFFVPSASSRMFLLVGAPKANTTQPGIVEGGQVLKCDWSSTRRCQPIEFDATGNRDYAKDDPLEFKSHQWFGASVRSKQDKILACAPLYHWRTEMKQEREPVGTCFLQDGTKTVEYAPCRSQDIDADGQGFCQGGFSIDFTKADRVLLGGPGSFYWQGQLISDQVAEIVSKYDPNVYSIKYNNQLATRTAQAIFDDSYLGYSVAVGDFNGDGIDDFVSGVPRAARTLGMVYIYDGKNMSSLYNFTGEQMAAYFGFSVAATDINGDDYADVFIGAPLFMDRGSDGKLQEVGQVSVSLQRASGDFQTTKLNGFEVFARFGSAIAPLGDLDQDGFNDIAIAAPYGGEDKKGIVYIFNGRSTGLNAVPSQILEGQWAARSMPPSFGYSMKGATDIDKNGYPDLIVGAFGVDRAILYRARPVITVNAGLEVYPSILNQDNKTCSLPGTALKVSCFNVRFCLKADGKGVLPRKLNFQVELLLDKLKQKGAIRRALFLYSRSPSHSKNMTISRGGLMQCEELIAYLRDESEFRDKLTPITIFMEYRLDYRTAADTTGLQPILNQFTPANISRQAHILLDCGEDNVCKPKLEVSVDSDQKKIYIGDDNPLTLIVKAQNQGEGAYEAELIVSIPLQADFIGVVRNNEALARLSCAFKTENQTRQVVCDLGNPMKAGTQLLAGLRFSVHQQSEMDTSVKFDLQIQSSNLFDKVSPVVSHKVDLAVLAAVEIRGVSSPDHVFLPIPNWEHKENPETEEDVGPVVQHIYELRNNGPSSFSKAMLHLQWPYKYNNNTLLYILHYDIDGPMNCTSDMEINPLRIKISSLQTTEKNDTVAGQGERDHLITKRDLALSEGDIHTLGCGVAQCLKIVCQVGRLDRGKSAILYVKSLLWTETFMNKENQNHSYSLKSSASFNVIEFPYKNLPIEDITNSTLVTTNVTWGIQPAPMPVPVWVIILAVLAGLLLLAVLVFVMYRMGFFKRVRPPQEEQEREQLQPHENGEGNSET
- Sequence (P18084 24-799): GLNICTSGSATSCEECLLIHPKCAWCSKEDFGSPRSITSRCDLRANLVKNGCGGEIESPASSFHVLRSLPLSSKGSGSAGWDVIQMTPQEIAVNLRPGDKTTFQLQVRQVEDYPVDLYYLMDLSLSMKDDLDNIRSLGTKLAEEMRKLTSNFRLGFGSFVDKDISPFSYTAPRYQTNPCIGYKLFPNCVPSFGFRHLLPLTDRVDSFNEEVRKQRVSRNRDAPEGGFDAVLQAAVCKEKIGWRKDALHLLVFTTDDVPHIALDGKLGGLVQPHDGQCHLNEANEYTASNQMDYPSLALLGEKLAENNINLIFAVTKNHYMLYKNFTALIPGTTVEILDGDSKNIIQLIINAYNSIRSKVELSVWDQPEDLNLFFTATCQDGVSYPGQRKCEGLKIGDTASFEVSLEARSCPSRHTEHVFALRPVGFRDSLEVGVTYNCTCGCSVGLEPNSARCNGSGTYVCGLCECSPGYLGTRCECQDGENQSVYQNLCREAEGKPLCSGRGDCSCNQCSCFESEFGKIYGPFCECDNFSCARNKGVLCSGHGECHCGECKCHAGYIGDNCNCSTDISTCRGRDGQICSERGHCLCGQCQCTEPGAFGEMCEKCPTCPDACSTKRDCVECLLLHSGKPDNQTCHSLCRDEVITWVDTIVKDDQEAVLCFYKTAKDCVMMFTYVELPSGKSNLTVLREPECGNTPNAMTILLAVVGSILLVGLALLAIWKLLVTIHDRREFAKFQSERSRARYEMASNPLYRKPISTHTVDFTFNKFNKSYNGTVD
- method.summary: Evaluation of integrin binding property (surface plasmon resonance, Biacore 3000, immobilized cyclic peptide)
- condition.summary: SPR, 25° C., HEPES buffer with 5 mM magnesium chloride, integrin 30-1,000 nM; read-out: Performance evaluation: Binding activity (dissociation constant between the cyclic peptide and human integrin αvβ5)
Starred links: 1 amine or outer side, 2 acyl side, 3 side chain; linkers in the order of their positions; H or OH if unused. Positions of bridges follow the written chain, without caps; N, C: chain ends. Non-standard residues stand in square brackets, D forms with d. Residues, ends and D or L forms follow the SMILES beside them. hCys = N[C@@H](CCS)C(=O)O; Dab = NCC[C@H](N)C(=O)O; X2 = O=C(C[*:1])[*:2]
measured.metric: Kd

N=C(N)NCCC[C@@H]1NC(=O)[C@H](Cc2ccc(O)cc2)NC(=O)[C@H](CC(N)=O)NC(=O)[C@H](CC(=O)O)NC(=O)CNC(=O)[C@H](CCCNC(=N)N)NC(=O)[C@@H]2CCCN2C(=O)[C@H](CCC(=O)O)NC(=O)[C@@H](NC(=O)[C@H](CC(=O)O)NC(=O)[C@H](CCCCN)NC(=O)[C@H](CCCCN)NC(=O)[C@@H](N)CCCCN)CCSCC(=O)NCC[C@@H](C(=O)N[C@@H](CC(=O)O)C(=O)O)NC1=O [Cyclic peptide 38, KKKD-(Hcy)-EPRGDNYR(Dab(acetyl))D] (H-KKKD[hCys]EPRGDNYR[Dab]D-OH; linker 5-14 via X2) :: 0.05 to 0.1 µM
CC[C@H](C)[C@@H]1NC(=O)[C@@H](NC(=O)[C@H](C)NC(=O)[C@H](CCCCN)NC(=O)[C@H](CCCCN)NC(=O)[C@@H](N)CCCCN)CCSCC(=O)NCC[C@@H](C(=O)N[C@@H](C)C(=O)O)NC(=O)[C@H](C)NC(=O)[C@H](Cc2ccccc2)NC(=O)[C@H](CO)NC(=O)[C@H](CC(=O)O)NC(=O)CNC(=O)[C@H](CCCNC(=N)N)NC(=O)[C@@H]2CCCN2C1=O [Cyclic peptide 92, KKKA-(Hcy)-IPRGDSFA(Dab(acetyl))A] (H-KKKA[hCys]IPRGDSFA[Dab]A-OH; linker 5-14 via X2) :: < 0.05 µM

* * *

- subject.of.test: human integrin αvβ5 (Homo sapiens, UniProt P06756+P18084)
- method.summary: Evaluation of integrin binding property (surface plasmon resonance, Biacore 3000, immobilized cyclic peptide)
- condition.summary: SPR, 25° C., HEPES buffer with 5 mM magnesium chloride, integrin 30-1,000 nM; read-out: Performance evaluation: Binding activity (dissociation constant between the cyclic peptide and human integrin αvβ5)
pKd: −log10 of the molar value. Starred links: 1 amine or outer side, 2 acyl side, 3 side chain; linkers in the order of their positions; H or OH if unused. Positions of bridges follow the written chain, without caps; N, C: chain ends. Non-standard residues stand in square brackets, D forms with d. Residues, ends and D or L forms follow the SMILES beside them. hCys = N[C@@H](CCS)C(=O)O; Dab = NCC[C@H](N)C(=O)O; X2 = O=C(C[*:1])[*:2]
measured.metric: pKd

CC[C@H](C)[C@@H]1NC(=O)[C@@H](NC(=O)[C@H](C)NC(=O)[C@H](CCCCN)NC(=O)[C@H](CCCCN)NC(=O)[C@@H](N)CCCCN)CCSCC(=O)NCC[C@@H](C(=O)N[C@@H](C)C(=O)O)NC(=O)[C@H](CCCNC(=N)N)NC(=O)[C@H](Cc2ccccc2)NC(=O)[C@H](CC(N)=O)NC(=O)[C@H](CC(=O)O)NC(=O)CNC(=O)[C@H](CCCNC(=N)N)NC(=O)[C@@H]2CCCN2C1=O [Cyclic peptide 2, KKKA-(Hcy)-IPRGDNFR(Dab(acetyl))A] (H-KKKA[hCys]IPRGDNFR[Dab]A-OH; linker 5-14 via X2) :: > 7.30
CC(C)[C@@H]1NC(=O)[C@@H](NC(=O)[C@H](CCCCN)NC(=O)[C@H](CCCCN)NC(=O)[C@@H](N)CCCCN)CCSCC(=O)NCC[C@@H](C(=O)N[C@@H](C)C(=O)O)NC(=O)[C@H](CCCNC(=N)N)NC(=O)[C@H](Cc2ccccc2)NC(=O)[C@H](CC(N)=O)NC(=O)[C@H](CC(=O)O)NC(=O)CNC(=O)[C@H](CCCNC(=N)N)NC(=O)[C@@H]2CCCN2C1=O [Cyclic peptide 21, KKK-(Hcy)-VPRGDNFR(Dab(acetyl))A] (H-KKK[hCys]VPRGDNFR[Dab]A-OH; linker 4-13 via X2) :: > 7.30

* * *

- subject.of.test: human integrin αvβ5 (Homo sapiens, UniProt P06756+P18084)
- method.summary: Evaluation of integrin binding property (surface plasmon resonance, Biacore 3000, immobilized cyclic peptide)
- condition.summary: SPR, 25° C., HEPES buffer with 5 mM magnesium chloride, integrin 30-1,000 nM; read-out: Performance evaluation: Binding activity (dissociation constant between the cyclic peptide and human integrin αvβ5)
- Excerpt: […]
Starred links: 1 amine or outer side, 2 acyl side, 3 side chain; linkers in the order of their positions; H or OH if unused. Positions of bridges follow the written chain, without caps; N, C: chain ends. Non-standard residues stand in square brackets, D forms with d. Residues, ends and D or L forms follow the SMILES beside them. hCys = N[C@@H](CCS)C(=O)O; Dab = NCC[C@H](N)C(=O)O; X2 = O=C(C[*:1])[*:2]
measured.metric: Kd

CC(C)C[C@@H]1NC(=O)[C@@H](NC(=O)CNC(=O)[C@H](CCCCN)NC(=O)[C@H](CCCCN)NC(=O)[C@@H](N)CCCCN)CCSCC(=O)NCC[C@@H](C(=O)N[C@@H](C)C(=O)O)NC(=O)[C@H](CCCNC(=N)N)NC(=O)[C@H](Cc2ccccc2)NC(=O)[C@H](CC(N)=O)NC(=O)[C@H](CC(=O)O)NC(=O)CNC(=O)[C@H](CCCNC(=N)N)NC(=O)[C@@H]2CCCN2C1=O [Cyclic peptide 27, KKKG-(Hcy)-LPRGDNFR(Dab(acetyl))A] (H-KKKG[hCys]LPRGDNFR[Dab]A-OH; linker 5-14 via X2) :: < 50 nM
CC(C)[C@@H]1NC(=O)[C@@H](NC(=O)[C@H](C)NC(=O)[C@H](CCCCN)NC(=O)[C@H](CCCCN)NC(=O)[C@@H](N)CCCCN)CCSCC(=O)NCC[C@@H](C(=O)N[C@@H](CC(=O)O)C(=O)O)NC(=O)[C@H](CCCNC(=N)N)NC(=O)[C@H](Cc2ccc(O)cc2)NC(=O)[C@H](CC(N)=O)NC(=O)[C@H](CC(=O)O)NC(=O)CNC(=O)[C@H](CCCNC(=N)N)NC(=O)[C@@H]2CCCN2C1=O [Cyclic peptide 29, KKKA-(Hcy)-VPRGDNYR(Dab(acetyl))D] (H-KKKA[hCys]VPRGDNYR[Dab]D-OH; linker 5-14 via X2) :: 50 to 100 nM
CC[C@H](C)[C@@H]1NC(=O)[C@@H](NC(=O)[C@H](C)NC(=O)[C@H](CCCCN)NC(=O)[C@H](CCCCN)NC(=O)[C@@H](N)CCCCN)CCSCC(=O)NCC[C@@H](C(=O)N[C@@H](CC(=O)O)C(=O)O)NC(=O)[C@H](CCCNC(=N)N)NC(=O)[C@H](Cc2ccc(O)cc2)NC(=O)[C@H](CC(N)=O)NC(=O)[C@H](CC(=O)O)NC(=O)CNC(=O)[C@H](CCCNC(=N)N)NC(=O)[C@@H]2CCCN2C1=O [Cyclic peptide 30, KKKA-(Hcy)-IPRGDNYR(Dab(acetyl))D] (H-KKKA[hCys]IPRGDNYR[Dab]D-OH; linker 5-14 via X2) :: < 50 nM
C[C@H](NC(=O)[C@H](CCCCN)NC(=O)[C@H](CCCCN)NC(=O)[C@@H](N)CCCCN)C(=O)N[C@H]1CCSCC(=O)NCC[C@@H](C(=O)N[C@@H](CC(=O)O)C(=O)O)NC(=O)[C@H](CCCNC(=N)N)NC(=O)[C@H](Cc2ccc(O)cc2)NC(=O)[C@H](CO)NC(=O)[C@H](CC(=O)O)NC(=O)CNC(=O)[C@H](CCCNC(=N)N)NC(=O)[C@@H]2CCCN2C(=O)[C@H](CCC(=O)O)NC1=O [Cyclic peptide 33, KKKA-(Hcy)-EPRGDSYR(Dab(acetyl))D] (H-KKKA[hCys]EPRGDSYR[Dab]D-OH; linker 5-14 via X2) :: 100 to 200 nM

* * *

Listing: Kd of selected molecules
- subject.of.test: human integrin αvβ5 (Homo sapiens, UniProt P06756+P18084)
- method.summary: Evaluation of integrin binding property (surface plasmon resonance, Biacore 3000, immobilized cyclic peptide)
- condition.summary: SPR, 25° C., HEPES buffer with 5 mM magnesium chloride, integrin 30-1,000 nM; read-out: Performance evaluation: Binding activity (dissociation constant between the cyclic peptide and human integrin αvβ5)
Starred links: 1 amine or outer side, 2 acyl side, 3 side chain; linkers in the order of their positions; H or OH if unused. Positions of bridges follow the written chain, without caps; N, C: chain ends. Non-standard residues stand in square brackets, D forms with d. Residues, ends and D or L forms follow the SMILES beside them. hCys = N[C@@H](CCS)C(=O)O; Dab = NCC[C@H](N)C(=O)O; X2 = O=C(C[*:1])[*:2]
measured.metric: Kd

CC[C@H](C)[C@@H]1NC(=O)[C@@H](NC(=O)[C@H](C)N)CCSCC(=O)NCC[C@@H](C(=O)N[C@@H](C)C(=O)N[C@@H](CCCCN)C(=O)N[C@@H](CCCCN)C(=O)N[C@@H](CCCCN)C(=O)O)NC(=O)[C@H](C)NC(=O)[C@H](Cc2ccccc2)NC(=O)[C@H](CO)NC(=O)[C@H](CC(=O)O)NC(=O)CNC(=O)[C@H](CCCNC(=N)N)NC(=O)[C@@H]2CCCN2C1=O [Cyclic peptide 100, A-(Hcy)-IPRGDSFA(Dab(acetyl))AKKK] (H-A[hCys]IPRGDSFA[Dab]AKKK-OH; linker 2-11 via X2) :: < 50 nM
CC[C@H](C)[C@@H]1NC(=O)[C@@H](NC(=O)[C@H](CCCCN)NC(=O)[C@H](CCCCN)NC(=O)[C@@H](N)CCCCN)CCSCC(=O)NCC[C@@H](C(=O)NCC(=O)O)NC(=O)[C@H](CCCNC(=N)N)NC(=O)[C@H](Cc2ccccc2)NC(=O)[C@H](CC(N)=O)NC(=O)[C@H](CC(=O)O)NC(=O)CNC(=O)[C@H](CCCNC(=N)N)NC(=O)[C@@H]2CCCN2C1=O [Cyclic peptide 4, KKK-(Hcy)-IPRGDNFR(Dab(acetyl))G] (H-KKK[hCys]IPRGDNFR[Dab]G-OH; linker 4-13 via X2) :: < 50 nM
